Cited source: ChEMBL document CHEMBL1135192

Listing of recorded pKi by entry.
subject-of-test: 5-hydroxytryptamine receptor 2A (Rattus norvegicus)
Sequence (P14842 whole entry): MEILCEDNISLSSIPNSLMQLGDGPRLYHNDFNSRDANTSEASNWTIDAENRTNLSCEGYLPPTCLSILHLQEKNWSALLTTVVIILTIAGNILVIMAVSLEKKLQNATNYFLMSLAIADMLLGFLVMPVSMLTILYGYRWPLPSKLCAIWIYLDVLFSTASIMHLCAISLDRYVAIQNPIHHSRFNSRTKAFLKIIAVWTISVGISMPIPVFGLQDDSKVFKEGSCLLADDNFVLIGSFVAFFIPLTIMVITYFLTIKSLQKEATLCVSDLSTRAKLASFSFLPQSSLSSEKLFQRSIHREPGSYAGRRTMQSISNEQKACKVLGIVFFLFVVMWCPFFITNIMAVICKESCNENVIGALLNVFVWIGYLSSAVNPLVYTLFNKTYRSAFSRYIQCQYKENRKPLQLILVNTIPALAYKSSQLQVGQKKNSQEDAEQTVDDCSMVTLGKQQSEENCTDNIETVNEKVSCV
assay: Compound was evaluated for its ability to displace (+/-)[125I]-DOI from 5-hydroxytryptamine 2A receptor in cloned rat cell culture
pKi: −log10 of the molar value.
test-readout: pKi

| compound | number |
| --- | --- |
| Cc1c2ccoc2c(CC(C)N)c2occc12 (stereo not drawn) | 8.74 |
| COc1cc(C)cc(OC)c1CC(C)N (stereo not drawn) | 7.31 |
| Cc1c2c(c(CC(C)N)c3c1CCO3)OCC2 (stereo not drawn) | 8.20 |
